Examples of compounds with documented EC50 follow.
# Test system: ring stage parasites
# Assay: Parasite growth potency assay, 72 hours, LDH readout
# Format: cell-based
# Conditions Used: 72 h, parasite growth measured by LDH assay after 72 hours at 37° C.; 0.7% rings, 2% haematocrit; read-out: EC50
Counter-ions that a name gives are not always drawn.

Compound	Unit	EC50
CCC1(CC)CC(=O)N([C@H](CCS(C)(=O)=O)c2cccc(C(=O)N[C@H]3C[C@H](C(F)(F)F)Oc4ccccc43)c2)C(=N)N1 [Example 162, trifluoroacetate]	nM	5.2
CC1(C)CC(=O)N(Cc2cc(F)cc(C(=O)N[C@@H]3c4ccccc4OC(C)(C)[C@H]3O)c2)C(=N)N1 [Example 183, trifluoroacetate]	nM	9.1
CCC1(CC)CC(=O)N([C@H](c2cccc(C(=O)N[C@H]3CCOc4ccccc43)c2)c2cccc(S(C)(=O)=O)c2)C(=N)N1 [Example 123B, trifluoroacetate]	nM	9.3
CCC[C@H](c1cccc(C(=O)N[C@@H]2c3ccccc3C[C@H]2O)c1)N1C(=N)N[C@@](CC2CC2)(c2ccccc2)CC1=O [Example 65, trifluoroacetate]	nM	43.9
CCC[C@H](c1cccc(C(=O)N[C@@H]2c3ccccc3OC(C)(C)[C@H]2O)c1)N1C(=N)NC(CC)(CC)CC1=O [Example 119A, trifluoroacetate]	nM	0.5
CC(C)[C@]1(C)CC(=O)N(Cc2cccc(C(=O)N[C@@H]3c4ccccc4C[C@H]3O)c2)C(=N)N1 [Example 10, trifluoroacetate]	nM	7.9
CCC1(CC)CC(=O)N(Cc2cccc(C(=O)N[C@@H]3c4ccccc4OCC3O)c2)C(=N)N1 (stereo in doubt) [Example 126B]	nM	19.4
CCC1(CC)CC(=O)N([C@H](c2cccnc2)c2cccc(C(=O)N[C@@H]3c4ccccc4C[C@H]3O)c2)C(=N)N1 [Example 109A, trifluoroacetate]	nM	1.6
CCC1(CC)CC(=O)N([C@H](CCOC(F)F)c2cccc(C(=O)N[C@@H]3c4ccccc4C[C@@]3(C)O)c2)C(=N)N1 [Example 158A]	nM	2.6
CC[C@@]1(C(F)(F)F)CC(=O)N(Cc2cc(F)cc(C(=O)N[C@H]3CCOc4ccccc43)c2)C(=N)N1 [Example 63, trifluoroacetate]	nM	80.2
CC[C@@]1(C(C)C)CC(=O)N(Cc2cc(F)cc(C(=O)N[C@@H]3c4ccccc4C[C@H]3O)c2)C(=N)N1 [Example 61, trifluoroacetate]	nM	6.1
CC(C)[C@]1(C)CC(=O)N([C@H](C)c2cccc(C(=O)N[C@@H]3c4ccccc4C[C@H]3O)c2)C(=N)N1 [Example 27, trifluoroacetate]	nM	3.2

====

# Tested on: ring stage parasites
# Assay: Parasite growth potency assay, 72 hours, LDH readout
# Format: cell-based
# Conditions Used: 72 h, parasite growth measured by LDH assay after 72 hours at 37° C.; 0.7% rings, 2% haematocrit; read-out: EC50
Counter-ions that a name gives are not always drawn.
Each record's class is read off its EC50 using these ranges: low = under 3 nM, medium = from 3 nM up to 10 nM, high = 10 nM and over

Compound	Label
CCC12CCCCCCCC3CC(NC(=O)c4cccc(c4)CN(C(=N)N1)C(=O)C2)c1ccccc1O3 (stereo not drawn)	high
CCC1(CC)CC(=O)N([C@H](c2ccccc2)c2cccc(C(=O)N[C@H]3CCOc4ccccc43)c2)C(=N)N1 [Example 4A, trifluoroacetate]	low
CCC1(CC)CC(=O)N([C@H](CCOCCOCCOCCN=[N+]=[N-])c2cccc(C(=O)N[C@H]3CC(C)(C)Oc4ccccc43)c2)C(=N)N1 [Example 201, trifluoroacetate]	low
COCC[C@H](c1cccc(C(=O)N[C@@H]2c3ccccc3C3(CC3)[C@H]2O)c1)N1C(=N)NC(C)(C)CC1=O [Example 167, trifluoroacetate]	medium
CCC1(CC)CC(=O)N([C@H](CCO)c2cccc(C(=O)N[C@H]3CCOc4ccccc43)c2)C(=N)N1 [Example 59, trifluoroacetate]	medium
CCC1(CC)CC(=O)N(Cc2cc(C#N)cc(C(=O)N[C@H]3CCOc4ccccc43)c2)C(=N)N1 [Example 84, trifluoroacetate]	medium
CCC1(CC)CC(=O)N(Cc2cccc(C(=O)N[C@@H]3c4ccccc4C[C@H]3O)n2)C(=N)N1 [Example 37, trifluoroacetate]	high
CCC[C@@H](c1cccc(C(=O)N[C@H]2CCOc3ccccc32)c1)N1C(=N)NC(CC)(CC)CC1=O [Example 13B, trifluoroacetate]	high
CC[C@]1(CC(C)C)CC(=O)N(Cc2cc(F)cc(C(=O)N[C@@H]3c4ccccc4C[C@H]3O)c2)C(=N)N1 [Example 47, trifluoroacetate]	medium
CCC1(CC)CC(=O)N([C@H](CCOC)c2cccc(C(=O)N[C@@H]3c4ccccc4C[C@H]3O)c2)C(=N)N1	low

====

# Test system: ring stage parasites
# Assay: Parasite growth potency assay, 72 hours, LDH readout
# Assay type: cell-based
# Conditions Used: 72 h, parasite growth measured by LDH assay after 72 hours at 37° C.; 0.7% rings, 2% haematocrit; read-out: EC50
pEC50: −log10 of the molar value. Counter-ions that a name gives are not always drawn.
Label condition not met if pEC50 falls below 8; label condition met in every other case.

Compound	Label
CCC[C@H](c1cccc(C(=O)N[C@@H]2c3ccccc3OCC2O)c1)N1C(=N)NC(CC)(CC)CC1=O (single isomer, unassigned) [Example 127B]	condition met
CCC1(CC)CC(=O)N(Cc2cccc(C(=O)N[C@H]3CC(C)(C)Oc4cc(F)ccc43)c2)C(=N)N1 (stereo in doubt) [Example 93, trifluoroacetate]	condition met
CCC1(CC)CC(=O)N([C@H](CC(C)C)c2cccc(C(=O)N[C@H]3CCOc4ccccc43)c2)C(=N)N1 [Example 14A, trifluoroacetate]	condition met
CCC1(CC)CC(=O)N(Cc2cccc(C(=O)N[C@H]3CCOc4ccc(Cl)cc43)c2)C(=N)N1 (stereo in doubt) [Example 215B]	condition met
CCC[C@H](c1cccc(C(=O)N[C@H]2CC3(CCC3)Oc3ccccc32)c1)N1C(=N)NC(CC)(CC)CC1=O (stereo in doubt) [Example 212B]	condition met
CC(C)[C@]1(C)CC(=O)N([C@H](c2ccccc2)c2cccc(C(=O)N[C@@H]3CCOc4ccccc43)c2)C(=N)N1 [Example 9B, trifluoroacetate]	condition not met
CCC1(COC)CC(=O)N(Cc2cccc(C(=O)N[C@H]3CCOc4ccccc43)c2)C(=N)N1 (stereo partly drawn) [Example 86, trifluoroacetate]	condition not met
CCC1(CC)CC(=O)N([C@H](CCOC)c2cccc(C(=O)N[C@H]3c4ccccc4C4(CC4)[C@@H]3O)c2)C(=N)N1 [Example 191B, trifluoroacetate]	condition not met
CCC1(CC)CC(=O)N([C@H](c2ccccc2)c2cccc(C(=O)N[C@@H]3c4ccccc4C[C@H]3O)c2)C(=N)N1 [Example 16, trifluoroacetate]	condition met

====

molecules and their reported pEC50
# Test system: ring stage parasites
# Assay: Parasite growth potency assay, 72 hours, LDH readout
# Type: cell-based
# Conditions Used: 72 h, parasite growth measured by LDH assay after 72 hours at 37° C.; 0.7% rings, 2% haematocrit; read-out: EC50
pEC50: −log10 of the molar value. Structures can show the parent of a compound that is named as a salt.

Molecule	pEC50
CCC1(CC)CC(=O)N([C@H](c2cncc(F)c2)c2cccc(C(=O)N[C@H]3CC(C)(C)Oc4ccccc43)c2)C(=N)N1 [Example 99A, trifluoroacetate]	9.22
CCC1(CC)CC(=O)N(Cc2cccc(C(=O)N[C@@H]3c4ccccc4OCC3(C)C)c2)C(=N)N1 (stereo in doubt)	9.30
CCC1(CC)CC(=O)N([C@H](c2cncc(F)c2)c2cccc(C(=O)N[C@H]3CCOc4ccccc43)c2)C(=N)N1 [Example 106A, trifluoroacetate]	9.30

====

EC50 values by entry
# System: ring stage parasites
# Assay: Parasite growth potency assay, 72 hours, LDH readout
# Type: cell-based
# Conditions Used: 72 h
Structures can show the parent of a compound that is named as a salt.

Compound	Unit	EC50
CCC1(CC)CC(=O)N([C@H](c2cccc(OS(=O)(=O)F)c2)c2cccc(C(=O)N[C@H]3CCOc4ccccc43)c2)C(=N)N1 [Example 149A, trifluoroacetate]	nM	1.5
CCC1(CC)CC(=O)N([C@H](c2ccc(OS(=O)(=O)F)cc2)c2cccc(C(=O)N[C@H]3CCOc4ccccc43)c2)C(=N)N1 [Example 150, trifluoroacetate]	nM	2.8
CCC1(CC)CC(=O)N([C@@H](c2cccc(OS(=O)(=O)F)c2)c2cccc(C(=O)N[C@H]3CCOc4ccccc43)c2)C(=N)N1 [Example 149B, trifluoroacetate]	nM	57.6

====

# pEC50 per entry
# Tested on: ring stage parasites
# Assay: Parasite growth potency assay, 72 hours, LDH readout
# Format: cell-based
# Conditions Used: 72 h, parasite growth measured by LDH assay after 72 hours at 37° C.; 0.7% rings, 2% haematocrit; read-out: EC50
pEC50: −log10 of the molar value. Counter-ions that a name gives are not always drawn.
Endpoint Label: pEC50

Compound	Numeric Value
CCC1(CC)CC(=O)N([C@@H](CCOC)c2cccc(C(=O)NC3CC(C)(C)Oc4ccccc43)c2)C(=N)N1 (stereo in doubt) [Example 72A, trifluoroacetate]	7.59
C=C=C(C)[C@H](c1cccc(C(=O)N[C@H]2CCOc3ccccc32)c1)N1C(=N)NC(CC)(CC)CC1=O [Example 78, trifluoroacetate]	8.51
CCC1(CC)CC(=O)N(Cc2cccc(C(=O)N[C@@H]3CC(C)(C)Oc4cccc(F)c43)c2)C(=N)N1 (stereo in doubt) [Example 94B, trifluoroacetate]	7.14
CCC1(CC)CC(=O)N([C@H](CCOC)c2cccc(C(=O)N[C@@H]3c4ccccc4C4(CC4)[C@H]3O)c2)C(=N)N1 [Example 191A, trifluoroacetate]	9.15
CCC[C@H](c1cccc(C(=O)N[C@H]2CCOc3ccccc32)c1)N1C(=N)N[C@@](CC)(c2ccccc2)CC1=O [Example 66, trifluoroacetate]	8.12
CC[C@]1(C)CC(=O)N([C@H](C)c2cccc(C(=O)NC3c4ccccc4OC(C)(C)C3(C)O)c2)C(=N)N1 (stereo partly drawn)	9.49
N=C1N[C@@](CC2CC2)(c2ccccc2)CC(=O)N1Cc1cc(F)cc(C(=O)N[C@@H]2CCOc3ccccc32)c1 [Example 5B, trifluoroacetate]	7.24
COCC[C@H](c1cccc(C(=O)N[C@@H]2c3ccccc3OC(C)(C)[C@H]2O)c1)N1C(=N)NC(C)(C)CC1=O [Example 178, trifluoroacetate]	8.62
CCC1(CC)CC(=O)N([C@H](CCOC)c2cncc(C(=O)N[C@@H]3c4ccccc4C[C@H]3O)c2)C(=N)N1 [Example 125, trifluoroacetate]	8.57
CCC1(CC)CC(=O)N(Cc2cccc(C(=O)N[C@H]3c4ccccc4OCC3(C)O)c2)C(=N)N1 (stereo in doubt) [Example 131B]	7.69
CCC1(CC)CC(=O)N(Cc2cccc(C(=O)N[C@@H]3c4ccccc4OC(C)(C)C3(C)O)c2)C(=N)N1 (stereo in doubt)	8.82
CCC[C@H](c1cccc(C(=O)N[C@H]2c3ccccc3OCC2O)c1)N1C(=N)NC(CC)(CC)CC1=O (stereo partly drawn) [Example 127A]	7.01
N=C1N[C@@](CC2CC2)(c2ccccc2)CC(=O)N1Cc1cccc(C(=O)N[C@@H]2CCOc3ccccc32)c1 [Example 6B, trifluoroacetate]	7.08
CC(C)[C@]1(C)CC(=O)N(Cc2cccc(C(=O)N[C@H]3CCc4ccccc43)c2)C(=N)N1 [Example 75, trifluoroacetate]	7.18
CCC1(CC)CC(=O)N(C(CCOC)c2ccc(C(F)(F)F)c(C(=O)N[C@@H]3c4ccccc4OC(C)(C)[C@H]3O)c2)C(=N)N1 (stereo partly drawn)	8.76
CCC1(CC)CC(=O)N([C@@H](c2cncc(F)c2)c2cccc(C(=O)N[C@H]3CC(C)(C)Oc4ccccc43)c2)C(=N)N1 [Example 99B, trifluoroacetate]	8.70
CCC1(CC)CC(=O)N([C@@H](c2ccc(S(C)(=O)=O)cc2)c2cccc(C(=O)N[C@H]3CC(C)(C)Oc4ccccc43)c2)C(=N)N1 [Example 115B, trifluoroacetate]	8.36
CCC1(CC)CC(=O)N([C@H](c2cccnc2)c2cccc(C(=O)N[C@H]3CC(C)(C)Oc4ccccc43)c2)C(=N)N1 [Example 100A, trifluoroacetate]	9.40
N=C1N[C@@](CC2CC2)(c2ccccc2)CC(=O)N1Cc1cccc(C(=O)N[C@@H]2c3ccccc3C[C@H]2O)c1 [Example 17, trifluoroacetate]	8.43
C#CCC[C@H](c1cccc(C(=O)N[C@H]2CCOc3ccccc32)c1)N1C(=N)NC(CC)(CC)CC1=O	8.05
CCC1(CC)CC(=O)N([C@H](CCOC)c2cc(F)cc(C(=O)NC3CCCOc4ccccc43)c2)C(=N)N1 (stereo in doubt) [Example 220, trifluoroacetate]	8.62
CCC1(CC)CC(=O)N([C@H](CCOC(F)F)c2cccc(C(=O)N[C@H]3CCOc4ccccc43)c2)C(=N)N1 [Example 164, trifluoroacetate]	9.05
CC(C)[C@]1(C)CC(=O)N(Cc2cccc(C(=O)N[C@@H]3c4ccccc4C[C@@H]3O)c2)C(=N)N1 [Example 18, trifluoroacetate]	7.67
CCOCC[C@H](c1cccc(C(=O)N[C@@H]2c3ccccc3C[C@H]2O)c1)N1C(=N)NC(C)(C)CC1=O [Example 171, trifluoroacetate]	8.28
